The measurements presented in this section are drawn from PubChem BioAssay (EPA / NIEHS).

# Read-out: Matrix Metallopeptidase 1 (MMP1), MMP1 (gene 4312)
# experimental details: BSK_MyoF_MMP1: BioMAP Diversity Plus: MyoF Assay for Matrix Metallopeptidase 1 (MMP1) Biomarker Activity (AID 2284268)
# measurement parameters: primary human lung fibroblasts
The source made the active and inactive calls. How the source made its calls: active means hit-call score of the fitted dose curve at least 0.9, where 1 is the maximum; inactive means score below 0.9.
Pick one: y = active, n = inactive

IN: Assay outcome for OCC(F)(F)C(F)(F)C(F)(F)CO : what was it?
OUT: n

IN: Assay outcome for NS(=O)(=O)C(F)(F)C(F)(F)C(F)(F)C(F)(F)C(F)(F)C(F)(F)F : what was it?
OUT: n

IN: Assay outcome for C[Si](Cl)(Cl)CCC(F)(F)C(F)(F)C(F)(F)C(F)(F)C(F)(F)C(F)(F)F : what was it?
OUT: n

IN: Assay outcome for Cc1ccc(O)c(-n2nc3ccccc3n2)c1 : what was it?
OUT: n

IN: Assay outcome for FC(F)(F)C(F)(F)C(F)(F)C(F)(F)C(F)(F)C(F)(F)CC[Si](Cl)(Cl)Cl : what was it?
OUT: n

IN: Assay outcome for O=C(Cl)C(F)(F)C(F)(F)C(F)(F)C(F)(F)C(F)(F)C(F)(F)C(F)(F)F : what was it?
OUT: n

IN: Assay outcome for O=C(O)C(F)(F)C(F)(F)C(F)(F)OC(F)(C(F)(F)F)C(F)(F)F : what was it?
OUT: n

IN: Assay outcome for FC(F)(F)C(F)(F)C(F)(F)C(F)(F)C(F)(F)C(F)(F)C(F)(F)CCI : what was it?
OUT: n

IN: Assay outcome for NC(=O)C(F)(F)C(F)(F)C(F)(F)C(F)(F)C(F)(F)C(F)(F)C(F)(F)F : what was it?
OUT: n

IN: Assay outcome for O=C=NCc1cccc(CN=C=O)c1 : what was it?
OUT: n

IN: Assay outcome for O=C(O)C(F)(F)C(F)(F)C(F)(F)OC(F)(F)F : what was it?
OUT: n

IN: Assay outcome for O=S(=O)(OCC(F)(F)F)C(F)(F)C(F)(F)C(F)(F)C(F)(F)F : what was it?
OUT: n

IN: Assay outcome for CC(C)CCCC(C)CCO (stereo unspecified) : what was it?
OUT: y

IN: Assay outcome for CO[Si](C)(CCC(F)(F)C(F)(F)C(F)(F)C(F)(F)C(F)(F)C(F)(F)F)OC : what was it?
OUT: n

IN: Assay outcome for O=S(=O)(O)CCC(F)(F)C(F)(F)C(F)(F)C(F)(F)C(F)(F)C(F)(F)C(F)(F)C(F)(F)F : what was it?
OUT: n

IN: Assay outcome for OCC(O)CC(F)(F)C(F)(F)C(F)(F)C(F)(F)C(F)(F)C(F)(F)C(F)(F)C(F)(F)F (stereo unspecified) : what was it?
OUT: n
